# TEST METHOD NOTES: Cytotoxicity against human HCT15 cells assessed as cell viability at 10 uM after 72 hrs by sulforhodamine B assay relative to control
# Assay type: functional
# MEASUREMENT SETUP: HCT-15, 72 h, read-out: Activity
# viability at 10 µM values compiled below

MOLECULE	viability at 10 µM, %
O=C(Nc1cc(C(F)(F)F)cc(C(F)(F)F)c1)C1Cc2ccccc2O1 (stereo not given)	92
O=C(Nc1ccc([N+](=O)[O-])cc1)c1cc2ccccc2o1	84
O=C(Nc1ccccc1[N+](=O)[O-])C1Cc2ccccc2O1 (stereo not given)	94
O=C(Nc1ccccc1Cl)C1Cc2ccccc2O1 (stereo not given)	102
COc1ccccc1NC(=O)C1Cc2ccccc2O1 (stereo not given)	100
O=C(Nc1ccccc1C(F)(F)F)C1Cc2ccccc2O1 (stereo not given)	98
O=C(Nc1cc(Cl)ccc1Cl)c1cc2ccccc2o1	81
COc1ccc(NC(=O)c2cc3ccccc3o2)cc1	87
O=C(Nc1ccc(O)cc1)C1Cc2ccccc2O1 (stereo not given)	88
O=C(Nc1ccccc1)c1cc2ccccc2o1	75
O=C(Nc1ccccc1)C1Cc2ccccc2O1 (stereo not given)	88
O=C(Nc1ccc(Cl)c(Cl)c1)C1Cc2ccccc2O1 (stereo not given)	88
Cc1ccc(NC(=O)c2cc3ccccc3o2)cc1C	95
O=C(Nc1cc(C(F)(F)F)ccc1C(F)(F)F)c1cc2ccccc2o1	88
O=C(Nc1ccc(C(F)(F)F)cc1)c1cc2ccccc2o1	80
Cc1cc(C)cc(NC(=O)c2cc3ccccc3o2)c1	79
O=C(Nc1cccc(Cl)c1)C1Cc2ccccc2O1 (stereo not given)	97
O=C(Nc1ccc(Cl)cc1)C1Cc2ccccc2O1 (stereo not given)	55
COc1cccc(NC(=O)c2cc3ccccc3o2)c1	87
O=C(Nc1cc(Cl)cc(Cl)c1)C1Cc2ccccc2O1 (stereo not given)	98
O=C(Nc1ccc(Cl)c(Cl)c1)c1cc2ccccc2o1	96
O=C(Nc1cccc(C(F)(F)F)c1)c1cc2ccccc2o1	75
COc1ccc(NC(=O)c2cc3ccccc3o2)cc1OC	92
O=C(Nc1cccc(O)c1)C1Cc2ccccc2O1 (stereo not given)	97
O=C(Nc1ccc(O)cc1)c1cc2ccccc2o1	18
Cc1ccc(NC(=O)C2Cc3ccccc3O2)cc1 (stereo not given)	100
O=C(Nc1cccc(Cl)c1)c1cc2ccccc2o1	52
COc1ccc(OC)c(NC(=O)c2cc3ccccc3o2)c1	97
O=C(Nc1ccccc1Cl)c1cc2ccccc2o1	75
COc1ccc(NC(=O)C2Cc3ccccc3O2)cc1 (stereo not given)	89
Cc1ccc(C)c(NC(=O)C2Cc3ccccc3O2)c1 (stereo not given)	88
Cc1cc(C)cc(NC(=O)C2Cc3ccccc3O2)c1 (stereo not given)	91
O=C(Nc1cc(Cl)ccc1Cl)C1Cc2ccccc2O1 (stereo not given)	77
O=C(Nc1ccc(Cl)cc1)c1cc2ccccc2o1	68
Cc1ccccc1NC(=O)c1cc2ccccc2o1	93
